What pIC50 was measured for each of the following?
system: Bel-7402 (human hepatocellular carcinoma); assay: MTT cytotoxicity assay, Bel-7402; type: cell-based; details: Homo sapiens, Bel-7402, 72 h, maximal tested concentration 20.0 μM
pIC50: −log10 of the molar value.

Cc1nc(C)c(C(=O)OC2CCC3(C)C(CCC4(C)C3CC=C3C5CC(C)(C)CCC5(C(=O)O)CCC34C)C2(C)C)nc1C (stereo not drawn) [Compound 1d] has a reported pIC50 of 5.03

Cc1nc(C)c(C)nc1C [TMP, ligustrazine] has a reported pIC50 of < 4.70

C=C(C)[C@@H]1CC[C@]2(C(=O)O)CC[C@]3(C)[C@H](CC[C@@H]4[C@@]5(C)CC[C@H](O)C(C)(C)[C@@H]5CC[C@]43C)[C@@H]12 [BA, betulinic acid, reference compound] has a reported pIC50 of < 4.70

Cc1nc(C)c(COC(=O)[C@]23CC[C@@H](C)[C@H](C)C2C2=CCC4[C@@]5(C)CC[C@H](O)C(C)(C)C5CC[C@@]4(C)[C@]2(C)CC3)nc1C (stereo partly drawn) [Compound 2a] has a reported pIC50 of 5.10

C=C(C)C1CCC2(C(=O)OCc3ccccc3)CCC3(C)C(CCC4C5(C)CCC(OC(=O)c6nc(C)c(C)nc6C)C(C)(C)C5CCC43C)C12 (stereo not drawn) [Compound 4c] has a reported pIC50 of < 4.70

C[C@H]1[C@H](C)CC[C@]2(C(=O)O)CC[C@]3(C)C(=CC[C@@H]4[C@@]5(C)CC[C@H](O)C(C)(C)[C@@H]5CC[C@]43C)[C@H]12 [UA, ursolic acid, reference compound] has a reported pIC50 of < 4.70

Numbers sourced from paper PMC4613240.
